Reported values of Potency (pM), IL-17-driven IL-6 production in HS27 cells for individual entries
Biological target: human IL-17A (human, UniProt Q16552 24-155)
Sequence (Q16552 24-155): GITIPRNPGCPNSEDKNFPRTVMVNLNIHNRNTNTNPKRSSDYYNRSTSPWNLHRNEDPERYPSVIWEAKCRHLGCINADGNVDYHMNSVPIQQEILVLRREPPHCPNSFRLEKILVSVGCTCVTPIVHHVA
Experiment: cell-based or functional assay
Please answer using a numeric value trailed by its unit.

# annotated cases, reported Potency (pM), IL-17-driven IL-6 production in HS27 cells shown
BINDER	READING
IL17-h10F7.6 (antibody, V domains shown, IgG; constant regions not specified; also called h10F7.6 (VH.1a-Vk.1a)) VH: EVQLVQSGAEVKKPGSSVKVSCKASGYTFTDYEIHWVRQAPGQGLEWIGVNDPESGGTFYNQKFDGRATLTADKSTSTAYMELSSLRSEDTAVYYCTRYYRYESFYGMDYWGQGTTVTVSS VL: DIQLTQSPSSLSASVGDRVTITCSASSSISYIYWFQQKPGKSPKRWIYATFELASGVPSRFSGSGSGTDYTLTISSLQPEDFATYYCHQRSSYPWTFGQGTKLEIKR	264 pM
m10F7hIgG1 (antibody, V domains shown) VH: QVQLQQSGAELVRPGTSVTLSCKASGYIFTDYEIHWVKQTPVHGLEWIGVNDPESGGTFYNQKFDGKAELTADKSSSTAYMELRSLTSEDSGVYYCTRYYRYESFYGMDYWGQGTSITVSS VL: QIVLTQSPAIMSASPGEKVTMTCSASSSISYIYWFQQKPGTSPKRWIYATFELASGVPARFSGSGSGTSYSLTISSMEAEDAATYYCHQRSSYPWTFGGGSKLEIKR	40 pM
IL17-h10F7.13 (antibody, V domains shown, IgG; constant regions not specified) VH: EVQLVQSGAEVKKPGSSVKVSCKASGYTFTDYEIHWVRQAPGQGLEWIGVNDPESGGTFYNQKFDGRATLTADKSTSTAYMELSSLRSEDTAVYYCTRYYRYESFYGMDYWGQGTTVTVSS VL: QIVLTQSPSSLSASVGDRVTITCSASSSISYIYWFQQKPGKSPKRWIYATFELASGVPSRFSGSGSGTDYTLTISSLQPEDFATYYCHQRSSYPWTFGQGTKLEIKR	242 pM

Short answer for IL17-h10F7.11 (antibody, V domains shown, IgG; constant regions not specified; also called h10F7.11 (VH.1a-Vk.2a)) VH: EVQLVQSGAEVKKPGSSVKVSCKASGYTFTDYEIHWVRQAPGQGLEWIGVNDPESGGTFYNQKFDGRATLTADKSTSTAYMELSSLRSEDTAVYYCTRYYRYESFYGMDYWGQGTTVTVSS VL: EIVLTQSPDFQSVTPKEKVTITCSASSSISYIYWFQQKPDQSPKRWIYATFELASGVPSRFSGSGSGTDYTLTINSLEAEDAATYYCHQRSSYPWTFGQGTKLEIKR : Potency (pM), IL-17-driven IL-6 production in HS27 cells was 326 pM

Short answer for IL17-h10F7.9 (antibody, V domains shown, IgG; constant regions not specified) VH: QVQLQQSGAELVRPGTSVTLSCKASGYIFTDYEIHWVKQTPVHGLEWIGVNDPESGGTFYNQKFDGKAELTADKSSSTAYMELRSLTSEDSGVYYCTRYYRYESFYGMDYWGQGTSITVSS VL: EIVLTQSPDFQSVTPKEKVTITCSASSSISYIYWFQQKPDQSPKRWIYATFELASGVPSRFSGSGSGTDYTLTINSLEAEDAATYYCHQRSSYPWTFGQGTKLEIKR : Potency (pM), IL-17-driven IL-6 production in HS27 cells was 293 pM
